# inhibition per entry
System: Hepatitis C virus NS3 helicase
EXPERIMENT NOTES: HCV NS3 helicase inhibitors, retest, confirmation, biochemical, fluorescence polarization, ChemBridge library (AID 720485)
CONDITION: NS3h binding to Cy5-dT15 DNA, at 100 µM, hits give high values
Some of the results follow.
READOUT TYPE: inhibition (%)

>>> reported_result("O=C1NC(=O)C(=Cc2cc([N+](=O)[O-])cc(Br)c2O)C(=O)N1")
19.3
>>> reported_result("COc1cc(/C(O)=C(\\C#N)c2nc3ccccc3n2C)cc(OC)c1OC")
7.62
>>> reported_result("CCN(CC)c1ccc(NC(=O)/C(=C\\c2ccccc2)NC(C)=O)cc1")
23.5
>>> reported_result("O=c1c2c(nc3cc(-c4cccc(F)c4)[nH]n13)CCS2")
41.5
>>> reported_result("Cc1ccc(C(=O)NCCNc2ccc([N+](=O)[O-])cc2)cc1")
16.1
>>> reported_result("CCN(CC)c1ccc(C=C2C(=O)N(C)C(=O)N(C)C2=O)c(O)c1")
12.9
>>> reported_result("N#Cc1c(N)nc2sc(C(=O)Nc3ccccc3)c(N)c2c1-c1ccco1")
4.44
